Exercise: state measured IC50 for each of the molecules provided.
# Tested on: MOLM-13 cells
# protocol.notes: MOLM-13 96 Hour cell proliferation assay (Cell Titer-Glo)
# Type: cell-based
# experimental.setup: Homo sapiens

Look over these answered cases.
Cn1ccc(-c2cn(-c3cncc(CCc4ccc5ccc(N)nc5c4)c3)c3ncnc(N)c23)n1 [Compound I-114]
1000 to 10000 nM
CC(C)c1cc(N)c2ccc(OCc3cncc(-n4ccc5c(N)ncnc54)c3)cc2n1 [Compound I-12]
1000 to 10000 nM
CC(C)c1cc(N2CCNCC2)c2ccc(OCc3cncc(-n4ccc5c(N)ncnc54)c3)cc2n1 [Compound I-95]
< 1000 nM
CCc1cc(N2CCNCC2)c2ccc(OCc3cncc(-n4cc(-c5ccn(C)n5)c5c(N)ncnc54)c3)cc2n1 [Compound I-121]
< 1000 nM
CCc1cc(NC)c2ccc(OCc3cncc(-n4cc(-c5ccn(C)n5)c5c(N)ncnc54)c3)cc2n1 [Compound I-135]
< 1000 nM

Hi team, please reply with IC50 for each item in this list.
1. C[C@@H]1CCN1c1ccc2ccc(OCc3cncc(-n4cc(C5CCCC5)c5c(N)ncnc54)c3)cc2n1 [Compound I-124]
2. CCc1cc(N(C)C)c2ccc(OCc3cncc(-n4ccc5c(N)ncnc54)c3)cc2n1 [Compound I-232]
3. CNc1ccc2ccc(CCc3cncc(-n4cc(F)c5c(N)ncnc54)c3)cc2n1 [Compound I-116]
4. Cn1ccc(-c2cn(-c3cncc(CCc4ccc5ccc(N6CCC6)nc5c4)c3)c3ncnc(N)c23)n1 [Compound I-104]

["1000 to 10000 nM", "< 1000 nM", "1000 to 10000 nM", "< 1000 nM"]

Hi team, please reply with IC50 for each item in this list.
1. CCc1cc(NCCOC)c2ncc(OCc3cncc(-n4cc([C@@H]5CCCO5)c5c(N)ncnc54)c3)cc2n1 [Compound I-152]
2. Cn1ccc(-c2cn(-c3cncc(COc4ccc5ccc(N6CC(O)C6)nc5c4)c3)c3ncnc(N)c23)n1 [Compound I-193]
3. CCc1cc(NCCCN(C)C)c2ccc(CCc3cncc(-n4ccc5c(N)ncnc54)c3)cc2n1 [Compound I-127]

["< 1000 nM", "1000 to 10000 nM", "≥ 10000 nM"]

---

Exercise: state measured pIC50 for each of the molecules provided.
# assay.target: METTL3/METTL14 (Homo sapiens)
# Sequence (Q86U44 whole entry, species assumed): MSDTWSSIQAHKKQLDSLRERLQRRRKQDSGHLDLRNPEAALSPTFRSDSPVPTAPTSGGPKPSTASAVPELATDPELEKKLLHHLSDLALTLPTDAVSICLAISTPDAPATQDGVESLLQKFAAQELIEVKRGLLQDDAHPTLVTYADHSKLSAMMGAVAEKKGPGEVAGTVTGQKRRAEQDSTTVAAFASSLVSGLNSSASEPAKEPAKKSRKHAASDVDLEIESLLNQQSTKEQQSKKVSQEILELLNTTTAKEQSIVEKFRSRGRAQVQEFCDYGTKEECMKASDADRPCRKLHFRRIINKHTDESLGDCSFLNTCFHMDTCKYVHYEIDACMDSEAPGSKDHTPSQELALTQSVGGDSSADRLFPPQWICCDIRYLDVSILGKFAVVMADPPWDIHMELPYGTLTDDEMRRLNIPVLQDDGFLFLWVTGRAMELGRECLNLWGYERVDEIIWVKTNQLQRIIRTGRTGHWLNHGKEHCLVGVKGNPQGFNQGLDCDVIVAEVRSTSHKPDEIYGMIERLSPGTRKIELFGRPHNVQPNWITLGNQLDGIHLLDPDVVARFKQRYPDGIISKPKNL
# Sequence (Q9HCE5 whole entry partner, species assumed): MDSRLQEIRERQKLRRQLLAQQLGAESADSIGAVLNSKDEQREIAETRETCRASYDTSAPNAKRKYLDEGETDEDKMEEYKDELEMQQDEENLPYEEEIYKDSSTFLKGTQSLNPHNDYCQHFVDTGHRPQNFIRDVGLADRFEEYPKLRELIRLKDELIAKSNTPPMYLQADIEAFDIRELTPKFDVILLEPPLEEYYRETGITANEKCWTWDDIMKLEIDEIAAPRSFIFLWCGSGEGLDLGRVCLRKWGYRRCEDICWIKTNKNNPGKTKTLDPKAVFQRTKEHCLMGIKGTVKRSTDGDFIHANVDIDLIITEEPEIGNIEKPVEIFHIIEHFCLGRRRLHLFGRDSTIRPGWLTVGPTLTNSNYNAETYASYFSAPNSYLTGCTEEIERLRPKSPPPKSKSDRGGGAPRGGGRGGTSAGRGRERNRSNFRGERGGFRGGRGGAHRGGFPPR
# protocol.notes: METTL3-14 standard enzyme assay (3H-SAM flashplate scintillation)
# experimental.setup: METTL3/METTL14 2.5 nM, RNA 100 nM, 3H-SAM 100 nM, 30 min
# Description: METTL3-14 Standard Enzyme Assay Assays were performed in a 25 μl-volume in 384-well V-bottom polypropylene microplates (Greiner Bio-One, cat. No. 781280) at ambient temperature. […] Following two washing cycles with 0.1% Tween-20, the plates were sealed and read on a TopCount (PerkinElmer, Waltham, Mass.) plate-based scintillation counter. […]
pIC50: −log10 of the molar value.

CCc1cc(NCCOC)c2ccc(OCc3cncc(-n4cc([C@@H]5CCCO5)c5c(N)ncnc54)c3)cc2n1
> 8.00
Cn1ccc(-c2cn(-c3cncc(COc4cc(F)c5ccc(N6CCC6)nc5c4)c3)c3ncnc(N)c23)n1
7.00 to 8.00
Cn1ccc(-c2cn(-c3cncc(COc4ccc5ccc(N6CC(F)C6)nc5c4)c3)c3ncnc(N)c23)n1
> 8.00
Cn1ccc(-c2cn(-c3cncc(COc4ccc5ccc(N6CCC6=O)nc5c4)c3)c3ncnc(N)c23)n1
< 6.00
CCNc1ccc2ccc(OCc3cccc(-n4cc(Cl)c5c(N)ncnc54)c3)cc2n1
7.00 to 8.00

Hi team, please reply with pIC50 for each item in this list.
1. CCc1cc(NC)c2ccc(CCc3cncc(-n4cc(-c5ccn(C)n5)c5c(N)ncnc54)c3)cc2n1
2. CCc1cc(NCCN(C)C)c2ccc(OCc3cncc(-n4ccc5c(N)ncnc54)n3)cc2n1

["> 8.00", "> 8.00"]
